Reference for the values: PubChem BioAssay AID1159580

# testMethodNotes: chemical genetic growth profiling, strain panel (AID 1159580);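 further: tested at 20 µM; growth read once vehicle control cultures reached saturation at 30 °C; 1 = growth at the plate median or of vehicle wells; lower values mean less growth of the strain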
# testConditions: S. cerevisiae deletion strains, growth OD, locus YBR021W, strain FUR4, hits give low values
Hit rate of the full screen: of about 5,500 compounds, about 2,000 (36%) were called active. About 18% were inconclusive and are not listed. The list shows a part of the results.
resultType: normalized growth

[
  {
    "compound": "CC(C)=CC1C(CO)C1(C)C (stereo not given)",
    "result": "1.02 (inactive)"
  },
  {
    "compound": "COc1cccc2c1CCC1=CC(=O)CC[C@@]12C",
    "result": "0.966 (inactive)"
  },
  {
    "compound": "NC[C@H]1O[C@H](OC2[C@@H](N)C[C@@H](N)[C@H](O[C@H]3O[C@H](CO)[C@@H](O)[C@H](N)[C@H]3O)[C@H]2O)[C@H](O)[C@@H](O)[C@@H]1O (stereo not given in full)",
    "result": "0.97 (inactive)"
  },
  {
    "compound": "COc1cc(O)c2c(=O)cc(-c3ccc(O)cc3)oc2c1",
    "result": "1.02 (inactive)"
  },
  {
    "compound": "CCn1nc(C(=O)O)c(=O)c2cc3c(cc21)OCO3",
    "result": "1.03 (inactive)"
  },
  {
    "compound": "NC(=O)c1ccc([N+](=O)[O-])cc1Cl",
    "result": "1.02 (inactive)"
  },
  {
    "compound": "CC(=O)OCC(=O)[C@@]1(O)CCC2C3C[C@H](C)C4=CC(=O)C=CC4(C)C3[C@@H](O)CC21C (stereo not given in full)",
    "result": "0.968 (inactive)"
  },
  {
    "compound": "C[N+]1(C)C[C@H](O)[C@H](C(=O)[O-])C1",
    "result": "1.01 (inactive)"
  },
  {
    "compound": "NCC(O)CC(=O)O (stereo not given)",
    "result": "0.999 (inactive)"
  },
  {
    "compound": "COC(=O)[C@H]1[C@H]2C[C@H]3c4[nH]c5cc(OC)ccc5c4CCN3C[C@H]2C[C@@H](OC(=O)c2cc(OC)c(OC)c(OC)c2)[C@@H]1OC",
    "result": "0.998 (inactive)"
  }
]

###

# testMethodNotes: chemical genetic growth profiling, strain panel (AID 1159580);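 further: tested at 20 µM; growth read once vehicle control cultures reached saturation at 30 °C; 1 = growth at the plate median or of vehicle wells; lower values mean less growth of the strain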
# testConditions: S. cerevisiae deletion strains, growth OD, locus YDR297W, strain sur2, hits give low values
Out of some 5,500 compounds screened, about 2,000 (36%) were called active. Not shown: some 18% with an inconclusive outcome. This is one part of the list.
resultType: normalized growth

[
  {
    "compound": "Oc1ccc([C@H]2Oc3cc(O)cc(O)c3C[C@H]2O)cc1",
    "resultType": "normalized growth",
    "measuredNumber": 0.984
  },
  {
    "compound": "C[C@]12CCC3C(CC[C@]4(O)C[C@@H](O)CC[C@]34C=O)[C@@]1(O)CCC2C1=CC(=O)OC1 (some centres undefined)",
    "resultType": "normalized growth",
    "measuredNumber": 0.994
  },
  {
    "compound": "COC1CC(OC2CCC3(C)C(CCC4C3CCC3(C)C(C5=CC(=O)OC5)C(OC(C)=O)CC43O)C2)OC(C)C1O (centres undefined)",
    "resultType": "normalized growth",
    "measuredNumber": 1.03
  },
  {
    "compound": "CC1=CC(=O)C2C(C)(C)CCC[C@]2(C)[C@@]1(O)CCc1ccoc1 (some centres undefined)",
    "resultType": "normalized growth",
    "measuredNumber": 0.991
  },
  {
    "compound": "O=C(O)C1=CC(=C(c2ccc(O)c(C(=O)O)c2)c2ccc(O)c(C(=O)O)c2)C=CC1=O",
    "resultType": "normalized growth",
    "measuredNumber": 0.978
  },
  {
    "compound": "COC(=O)N/N=C\\c1c[n+]([O-])c2ccccc2[n+]1[O-]",
    "resultType": "normalized growth",
    "measuredNumber": 0.983
  },
  {
    "compound": "CN(C)CC[C@H](c1ccc(Cl)cc1)c1ccccn1",
    "resultType": "normalized growth",
    "measuredNumber": 1.01
  },
  {
    "compound": "CC1(C)S[C@@H]2[C@H](NC(=O)[C@@H](N)c3ccc(O)cc3)C(=O)N2[C@H]1C(=O)O",
    "resultType": "normalized growth",
    "measuredNumber": 0.998
  },
  {
    "compound": "Nc1nc(/C(=C/CC(=O)O)C(=O)N[C@@H]2C(=O)N3C(C(=O)O)=CCS[C@H]23)cs1",
    "resultType": "normalized growth",
    "measuredNumber": 1.01
  },
  {
    "compound": "CC(=O)OC1CC[C@@]2(C)C(CCC3C2CC[C@]2(C)C(C4=CC(=O)OC4)C(OC(C)=O)CC32O)C1 (some centres undefined)",
    "resultType": "normalized growth",
    "measuredNumber": 0.989
  },
  {
    "compound": "CC(C)=CC1C(CO)C1(C)C (centres undefined)",
    "resultType": "normalized growth",
    "measuredNumber": 1.03
  },
  {
    "compound": "Cc1c(C(N)=O)cc([N+](=O)[O-])cc1[N+](=O)[O-]",
    "resultType": "normalized growth",
    "measuredNumber": 1.01
  },
  {
    "compound": "COC(=O)C(N)CS (centres undefined)",
    "resultType": "normalized growth",
    "measuredNumber": 0.98
  },
  {
    "compound": "O=C(CCCN1CCC2(CC1)C(=O)NCN2c1ccccc1)c1ccc(F)cc1",
    "resultType": "normalized growth",
    "measuredNumber": 0.981
  },
  {
    "compound": "C[C@@H]1CC[C@@]23CCC4(C)[C@@](C=CC5[C@@]6(C)CC[C@H](O)C(C)(C)C6CC[C@]54C)(OC2=O)C3[C@H]1C (some centres undefined)",
    "resultType": "normalized growth",
    "measuredNumber": 1
  },
  {
    "compound": "NC[C@@H]1O[C@H](O[C@@H]2[C@@H](CO)OC(O[C@@H]3[C@@H](O)[C@H](N)C[C@H](N)[C@H]3O[C@H]3O[C@H](CO)[C@@H](O)[C@H](O)[C@H]3N)[C@@H]2O)[C@H](N)[C@@H](O)[C@@H]1O (some centres undefined)",
    "resultType": "normalized growth",
    "measuredNumber": 0.992
  },
  {
    "compound": "C/C=C/CC(C)C(O)C1C(=O)NC(CC)C(=O)N(C)CC(=O)N(C)C(CC(C)C)C(=O)NC(C(C)C)C(=O)N(C)C(CC(C)C)C(=O)NC(C)C(=O)NC(C)C(=O)N(C)C(CC(C)C)C(=O)N(C)C(CC(C)C)C(=O)N(C)C(C(C)C)C(=O)N1C (centres undefined)",
    "resultType": "normalized growth",
    "measuredNumber": 1.02
  },
  {
    "compound": "Cc1c(OCC(F)(F)F)ccnc1CS(=O)c1nc2ccccc2[nH]1 (centres undefined)",
    "resultType": "normalized growth",
    "measuredNumber": 1.02
  },
  {
    "compound": "COc1cc(O)c2c(=O)cc(-c3ccc(OC)c(-c4c(O)cc(O)c5c(=O)cc(-c6ccc(O)cc6)oc45)c3)oc2c1",
    "resultType": "normalized growth",
    "measuredNumber": 0.996
  }
]
